Entry source: patent US20230293599A1

# Tested on: P. aeruginosa
# test details: Biolog Phenotype Microarray PM1-2 growth on carbon sources
# Assay type: cell-based, Pseudomonas aeruginosa
Residues, ends and D or L forms follow the SMILES beside them.
Threshold 500: AUC of growth curve, P. aeruginosa strictly smaller gives True, otherwise False.

Req: Identify whether the compound O=C1O[C@H]([C@@H](O)CO)[C@@H](O)[C@@H]1O [L-Galactonic Acid γ-Lactone] records AUC of growth curve, P. aeruginosa below 500.
Resp: False

Req: Lab log: compare recorded AUC of growth curve, P. aeruginosa with 500; is it strictly lower for O=C(CO)[C@@H](O)[C@H](O)[C@@H](O)CO [L-Sorbose] ?
Resp: True

Req: Just wondering, is AUC of growth curve, P. aeruginosa of C[C@H](N)C(=O)NCC(=O)O [L-Alanyl-Glycine] (H-Ala-Gly-OH) below 500?
Resp: True

Req: Criterion: AUC of growth curve, P. aeruginosa strictly below 500. Is it met by O=C(CO)[C@@H](O)[C@@H](O)[C@H](O)CO [D-Tagatose] ?
Resp: False

Req: Dear colleague, could you confirm whether AUC of growth curve, P. aeruginosa of NCC(=O)N[C@@H](CC(=O)O)C(=O)O [Glycyl-L-Aspartic Acid] (H-Gly-Asp-OH) falls below 500? Thanks.
Resp: False

Req: Lab note: confirm whether the reported AUC of growth curve, P. aeruginosa for this compound is below 500, equality not counting. compound: N=C(N)NCCC[C@H](N)C(=O)O [L-Arginine]
Resp: True

Req: Criterion: AUC of growth curve, P. aeruginosa strictly below 500. Is it met by NCC(=O)N[C@@H](CCC(=O)O)C(=O)O [Glycyl-L-Glutamic Acid] (H-Gly-Glu-OH) ?
Resp: True

Req: Given O=C(CO)[C@@H](O)[C@H](O)[C@H](O)CO [D-Fructose] , is recorded AUC of growth curve, P. aeruginosa strictly lower than 500?
Resp: True

Req: Is AUC of growth curve, P. aeruginosa of O=C(CO)[C@@H](O)[C@H](O)[C@@H](O)C(=O)O [5-Keto-D-Gluconic Acid] strictly below 500?
Resp: False

Req: Item O=C1O[C@@H]([C@H](O)CO)[C@H](O)[C@H]1O [D-Galactonic-Acid-γ-Lactone] : AUC of growth curve, P. aeruginosa beneath 500, strictly?
Resp: True

Req: Input O=C(O)[C@H](O)[C@@H](O)[C@H](O)[C@H](O)CO [D-Gluconic Acid] ; condition: AUC of growth curve, P. aeruginosa strictly below 500. Does it hold?
Resp: False

Req: Record NCC(=O)N1CCC[C@H]1C(=O)O [Glycyl-L-Proline] (H-Gly-Pro-OH) : is its AUC of growth curve, P. aeruginosa strictly below 500?
Resp: True

Req: Is 500 strictly greater than the compound's reported AUC of growth curve, P. aeruginosa? compound: O=C(CO)[C@H](O)[C@H](O)[C@H](O)CO [D-Psicose]
Resp: False

* * *

# Test system: R. dentocariosa
# test details: Biolog Phenotype Microarray PM1-2 growth on carbon sources
# Format: cell-based, Rothia dentocariosa
# assay setup: 35 hours, absorbance 590 nm, n = 1; cells without values AUC < 50
measurement label: AUC of growth curve, R. dentocariosa
Keep the answer to the number alone.

Req: Return AUC of growth curve, R. dentocariosa (reported value) for this compound: `O=C[C@H](O)[C@@H](O)[C@H](O)CO`
Resp: 257.9

Req: Kindly indicate its recorded AUC of growth curve, R. dentocariosa. Item: `OC[C@H]1O[C@H](O[C@H]2[C@H](O)[C@@H](O)[C@H](O)O[C@@H]2CO)[C@H](O)[C@@H](O)[C@@H]1O`
Resp: 977.1

Req: Indicate its recorded AUC of growth curve, R. dentocariosa; the compound in question is CO[C@@H]1O[C@H](CO)[C@@H](O)[C@H](O)[C@H]1O [β-Methyl-D-Glucoside]
Resp: 405.7

Req: # return recorded AUC of growth curve, R. dentocariosa for entry N[C@H]1C(O)O[C@H](CO)[C@@H](O)[C@@H]1O (stereo partly drawn)
Resp: 200.6

Req: Give me measured AUC of growth curve, R. dentocariosa, please, for this compound: `C[C@@H](O)[C@H](O)[C@H](O)[C@@H](O)C=O`
Resp: 119.9

Req: Return the recorded AUC of growth curve, R. dentocariosa value; entry: O=C(O)CC(Br)C(=O)O (stereo not drawn)
Resp: 808.4

Req: Assign AUC of growth curve, R. dentocariosa to the following record: `O=C[C@@H](O)[C@@H](O)[C@H](O)[C@H](O)CO`
Resp: 106.1

Req: Report AUC of growth curve, R. dentocariosa, nothing else, for this compound: `C[C@H](O)[C@@H](O)[C@@H](O)[C@H](O)C=O`
Resp: 478.0

Req: Complete the entry with AUC of growth curve, R. dentocariosa for `O=C[C@@H](O)[C@H](O)[C@H](O)CO`
Resp: 305.6

* * *

Assign AUC of growth curve, G. haemolysans to each entry below.
# Tested on: G. haemolysans
# test details: Biolog Phenotype Microarray PM1-2 growth on carbon sources
# Assay type: cell-based, Gemella haemolysans
# assay setup: 35 hours, absorbance 590 nm, n = 1; cells without values AUC < 50
Kindly provide the number alone.

Req: // fetch AUC of growth curve, G. haemolysans given entry `O=CC[C@H](O)[C@H](O)CO`
Resp: 180.3

Req: Indicate the recorded AUC of growth curve, G. haemolysans value for this compound: `N[C@@H](Cc1ccccc1)C(=O)O`
Resp: 64.4

Req: Give the measured AUC of growth curve, G. haemolysans for `C[C@H](O)[C@H](O)[C@@H](O)[C@@H](O)C=O`
Resp: 104.6

Req: Identify the reported AUC of growth curve, G. haemolysans for the following entry. O=C(CO)[C@@H](O)[C@H](O)[C@H](O)COP(=O)(O)O [D-Fructose-6-Phosphate]
Resp: 134.2

Req: Output AUC of growth curve, G. haemolysans of `O=C[C@@H](O)[C@@H](O)[C@H](O)[C@H](O)CO`
Resp: 218.6

Req: Give recorded AUC of growth curve, G. haemolysans. COC(=O)C(C)=O [Methyl Pyruvate]
Resp: 870.9

Req: Respond only with AUC of growth curve, G. haemolysans recorded for CC(O)C(C)O (stereo not shown)
Resp: 145.4

Req: In one line, give reported AUC of growth curve, G. haemolysans of the entry `O=C[C@@H](O)[C@H](O)[C@H](O)CO` .
Resp: 88.1

Req: Provide AUC of growth curve, G. haemolysans value for the following compound: `O=C[C@H](O)[C@@H](O)[C@@H](O)CO`
Resp: 120.4

Req: Check the records and state AUC of growth curve, G. haemolysans for `C[C@H](O)[C@@H](O)[C@@H](O)[C@H](O)C=O`
Resp: 95.6

Req: Identify measured AUC of growth curve, G. haemolysans associated with `CC(=O)C(=O)O`
Resp: 552.9

Req: Identify the reported AUC of growth curve, G. haemolysans for the following entry. CC(=O)N[C@H]1C(O)O[C@H](CO)[C@@H](O)[C@@H]1O (stereo partly shown)
Resp: 711.9

Req: Given the compound `OC[C@H]1O[C@H](O)[C@H](O)[C@@H](O)[C@@H]1O` , write its reported AUC of growth curve, G. haemolysans.
Resp: 1140.8

Req: Name the recorded AUC of growth curve, G. haemolysans of the compound listed here: `Nc1ncnc2c1ncn2[C@@H]1O[C@H](CO)[C@@H](O)[C@H]1O`
Resp: 65.6

Req: Given N[C@H]1C(O)O[C@H](CO)[C@@H](O)[C@@H]1O (stereo partly shown) , respond with its AUC of growth curve, G. haemolysans.
Resp: 618.4

Req: Specify AUC of growth curve, G. haemolysans for `O=C[C@H](O)[C@H](O)[C@H](O)CO` and stop.
Resp: 627.5

Req: Assign AUC of growth curve, G. haemolysans to the following record: `O=C[C@H](O)[C@@H](O)[C@H](O)CO`
Resp: 581.3

Req: Provide AUC of growth curve, G. haemolysans value for the following compound: `C/C=C/C=C/C(=O)O`
Resp: 90.3

Req: Give the value of AUC of growth curve, G. haemolysans reported for the following: `O=C[C@H](O)[C@H](O)[C@@H](O)CO`
Resp: 430.7

Req: // Input: `O=C(O)C[C@H](O)C(=O)O` . Output its AUC of growth curve, G. haemolysans only.
Resp: 73.9

Req: Look up AUC of growth curve, G. haemolysans of NC(=O)[C@@H](O)[C@@H](O)[C@H](O)[C@@H](O)C=O [Glucuronamide] and report it.
Resp: 97.6

Req: Supply reported AUC of growth curve, G. haemolysans belonging to this compound: `CC(=O)N[C@H]1[C@@H](O)[C@H](O)[C@@H](CO)O[C@H]1O`
Resp: 375.8
